Please go through the items and note down their TGI.
Test system: HS 578T breast
assay-name: NCI tumour cell line growth inhibition, 48 h

COc1ccc(-c2[nH]c3ccc(OC)cc3c2/C=C(\C#N)S(=O)(=O)c2ccccc2)cc1 tested on HS 578T breast gave TGI: 7.25 µM

CCOC(=O)Cn1c(=O)ccn(COCCO)c1=O tested on HS 578T breast gave TGI: > 100 µM

COc1cc(OC)c(C(=O)/C=C/c2cccc(C(F)(F)F)c2)c(OC)c1 tested on HS 578T breast gave TGI: 28.6 µM

C/C(=N/NC(N)=S)c1ccc[nH]1 tested on HS 578T breast gave TGI: > 100 µM

COc1ccc(C[N+](C)(C)N)cc1OC tested on HS 578T breast gave TGI: > 100 µM

C=CCCC1(CC(Sc2ccccc2)P(=O)(c2ccccc2)c2ccccc2)OCCO1 (stereo unspecified) tested on HS 578T breast gave TGI: > 10 µM

O=[N+]([O-])c1ccc(S(=O)(=O)n2c3ccc(Br)cc3c3nc4ccccc4nc32)cc1 tested on HS 578T breast gave TGI: > 100 µM

CCC(C)NC1=NCC(C)S1 (stereo unspecified) tested on HS 578T breast gave TGI: > 100 µM

COc1ccc(C2=C(Cl)c3cc(OC)c(OC)cc3C2Cl)cc1 (stereo unspecified) tested on HS 578T breast gave TGI: 76.5 µM

O=C1CC(c2cccc([N+](=O)[O-])c2)C2(C(=O)NC(=O)NC2=O)C(c2cccc([N+](=O)[O-])c2)C1 (stereo unspecified) tested on HS 578T breast gave TGI: > 100 µM

COc1cc(Br)cc2cc(-c3cn4c(n3)sc3ccccc34)c(=O)oc12 tested on HS 578T breast gave TGI: 39.9 µM

O=C(NCP(=O)(c1ccccc1)c1ccccc1)OCc1ccccc1 tested on HS 578T breast gave TGI: > 100 µM

CCC(=O)Oc1ccc2c(c1)c(=O)c1c(NCCCN(C)C)ccc3nnn2c31 tested on HS 578T breast gave TGI: 21.6 µM

COc1ccc(C(=O)c2cc(C)c(OC)c(C)c2)c(OC)c1O tested on HS 578T breast gave TGI: > 100 µM

Cc1ccc(S(=O)(=O)N/N=C2/CCCOC2)cc1 tested on HS 578T breast gave TGI: > 100 µM

CSc1cc(Cl)c(C)cc1S(=O)(=O)NC(=O)NNc1cccc(C(F)(F)F)n1 tested on HS 578T breast gave TGI: > 100 µM

---

Test system: SK-OV-3 ovarian
assay-name: NCI tumour cell line growth inhibition, 48 h
parameter: TGI

TGI in this record for CCc1nc2cc(F)c(/C=C/C(=O)NO)cc2c(=O)n1CCc1ccccc1 : 0.787 µM

TGI in this record for CCOC(=O)Cc1nc2cc(F)c(F)cc2[nH]c1=O : > 100 µM

TGI in this record for COc1ccc2c3c([nH]c2c1[N+](=O)[O-])C(C)N(C)CC3 (stereo unspecified) : > 100 µM

TGI in this record for Cc1cc(C(=O)Nc2ccc3cc(CN4CCOCC4)ccc3n2)c(C)n1-c1ccccc1 : 40.2 µM

TGI in this record for CC1=CCC(O)C=CC(C)C(O)C(C)C=C(C)C(=O)c2c(O)c(C)cc3c2C(=O)C(N)=C(NC(=O)/C=C\C=C/C=CC(C)C(O)CC1=O)C3=O (stereo unspecified) : > 100 µM

TGI in this record for CC(C)=C[C@H]1CCC2(OCCO2)[C@]1(C)CO : > 100 µM

TGI in this record for COc1ccc(C2=C(Cl)c3cc(OC)c(OC)cc3C2Cl)cc1 (stereo unspecified) : 34.3 µM

TGI in this record for CC1=CC(=O)C=CC1=O : 93.8 µM

TGI in this record for CC1=C(/C=C/Cl)CC(Cl)C(C)(Cl)C1 (stereo unspecified) : > 100 µM

TGI in this record for CC(C)c1c(O)c(O)c2c(c1O)C(=O)C(O)=C1C(C)(C)CCC[C@@]12C : 15.6 µM

TGI in this record for COc1ccc(C(=O)c2cc(C)c(OC)c(C)c2)c(OC)c1O : > 100 µM

TGI in this record for COc1cc(-c2nc3ccccn3c2/N=C/c2cc(Br)cc(Br)c2O)ccc1O : 59 µM

TGI in this record for COC(=O)C(Cc1nc2ccccc2[nH]c1=O)C(NO)C(=O)Nc1c(Cl)cc([N+](=O)[O-])cc1Cl (stereo unspecified) : > 100 µM

TGI in this record for O=C(N/N=C/c1cc(Br)ccc1O)N/N=C/c1cc(Br)ccc1O : > 100 µM

TGI in this record for CNC(=S)/N=C(\N)N(C)C : > 100 µM

TGI in this record for CC(=O)O[C@H]1C(=O)[C@@]2(C)C(C(OC(=O)c3ccccc3)[C@]3(O)CC(OC(=O)C(O)C(NC(=O)c4ccc(C(F)(F)F)cc4)c4ccccc4)C(C)=C1C3(C)C)[C@]1(OC(C)=O)CO[C@@H]1C[C@@H]2O (stereo partly specified) : 0.946 µM

TGI in this record for CN(C)CC1CCCC(CN(C)C)C1OC(=O)c1ccccc1 (stereo unspecified) : > 100 µM

TGI in this record for O=C(O)CNS(=O)(=O)c1ccc(NC(=O)c2ccc([N+](=O)[O-])cc2)cc1 : > 100 µM

TGI in this record for COc1cc2oc(-c3ccc(O)cc3)c(OC)c(=O)c2c(O)c1OC : > 100 µM

TGI in this record for CN(C)CCCN=c1c2ccccc2n(O)c2ccccc12 : > 100 µM

TGI in this record for O=C1/C(=C(/c2ccccc2)N2CCOCC2)Cc2ccccc21 : 72.6 µM

TGI in this record for Cc1cc(C)c(NC(=O)c2sc3nc4c(cc3c2N)C(=O)CCC4)c(C)c1 : > 100 µM

TGI in this record for [N-]=[N+]=C1C(=O)NN=C1c1ccccc1 : > 100 µM

TGI in this record for CO/C=C(/C(=O)OC)c1ccccc1COc1cccc(C(F)(F)F)c1 : > 100 µM

TGI in this record for COC(=O)C1=CS/C(=C2\S[C@@H]3[C@H](S2)[C@H]2C=C[C@@H]3C2)S1 : > 100 µM

TGI in this record for O=c1cc(N2CCCC2)[nH]c(=O)n1-c1cccc(Cl)c1 : > 100 µM

TGI in this record for O=C(Nc1cc(Cl)c(Cl)cc1Cl)C(=O)C1C(=O)NC(=S)NC1=O : > 100 µM

TGI in this record for COc1cc2[nH]c3c(c2cc1OC)CCN[C@]31CC[C@]2(CC3c4c(cc(OC)c(O)c42)CCN3C)C[C@H]1OC (stereo partly specified) : 59.1 µM

TGI in this record for CC(C)OC(=O)/C=C/C(=O)O/C=C/[N+](=O)[O-] : > 100 µM

TGI in this record for COc1c(C(=O)/C=C/c2ccccc2)c(O)cc2occc12 : 36.4 µM

TGI in this record for COC1=C(OC)C(=O)C(Cc2c(C)nc3sccn23)=C(C)C1=O : 26.8 µM

TGI in this record for CCOC(=O)CCC(=O)C1c2cccc(O)c2C(=O)c2c(O)cc(C)cc21 (stereo unspecified) : 2.01 µM

TGI in this record for CC(=O)OC1C(Oc2c(C)cc3c(c2O)[C@@H](C)CC[C@@H]3[C@@H](C)CCC=C(C)C)OCC(O)C1O (stereo partly specified) : 38.1 µM

TGI in this record for CC1CCCCNC1=S (stereo unspecified) : > 10 µM

TGI in this record for CCOC(=O)C1SC(=Nc2ccc(C)c(C)c2)N=C1C (stereo unspecified) : > 100 µM

TGI in this record for CCc1nc(N)nc(N)c1-c1ccc(NC)c([N+](=O)[O-])c1 : > 100 µM

---

Please go through the items and note down their TGI.
System: OVCAR-8 ovarian
assay-name: NCI tumour cell line growth inhibition, 48 h

TGI in this record for COc1ccccc1CNCCCN1C(=O)c2ccc3c4c(ccc(c24)C1=O)C(=O)N(CCCNCCNCCCN)C3=O : 11.7 µM

TGI in this record for COC(=O)Nc1nc2ccc(C3(c4ccc(F)cc4)OCCO3)cc2[nH]1 : > 100 µM

TGI in this record for COc1cc(-c2nc3ccccn3c2/N=C/c2cc(Br)cc(Br)c2O)ccc1O : 61.8 µM

TGI in this record for Cc1sc2nc(-c3cccc([N+](=O)[O-])c3)c(/C=N/N=C(N)N)n2c1C : 3.23 µM

TGI in this record for CCCN(CCC)C(=O)c1c([N+](=O)[O-])cc(C(F)(F)F)cc1[N+](=O)[O-] : > 100 µM

TGI in this record for CSc1nnc(SC)nn1 : 35.9 µM

TGI in this record for Cc1ccc([N+](=O)[O-])c2c(NCCC[N+](C)(C)[O-])c3ccccc3nc12 : 49.1 µM

TGI in this record for O=c1cc(-c2ccc(Oc3ccccc3)cc2)[nH]c2cc3c(cc12)OCO3 : > 100 µM

TGI in this record for N#C/C(=C/NC(N)=S)C(N)=O : > 100 µM

TGI in this record for CCOC(=O)c1ccc(NCc2ccc3oc(=O)c(-c4ccccc4)nc3c2)cc1 : 65 µM

TGI in this record for CN(C(=O)Cc1cccc(N=C=S)c1)[C@H]1CCCC[C@@H]1N1CCCC1 : 42.2 µM

TGI in this record for Cc1cc(C(=O)Nc2ccc3cc(CN4CCOCC4)ccc3n2)c(C)n1-c1ccccc1 : 5.43 µM

TGI in this record for CCOC1=NC(O)c2cccn2-c2sccc21 (stereo not given) : > 100 µM

TGI in this record for COc1ccc(C[N+](C)(C)N)cc1OC : > 100 µM

TGI in this record for COc1ccc(C(=O)c2cc(C)c(OC)c(C)c2)cc1OC(=O)CCl : > 100 µM
